Ref: paper PMC7174318

molecular target: YtfB (his6-YtfB, C-terminal domain) (Escherichia coli); construct: extracellular C-terminal region, residues 52-212 incl; LysM-like (OapA) domain; His6 tag kept; pETMCSIII-ytfB, expressed in E. coli BL21 AI; test: surface plasmon resonance, steady state affinity, YtfB immobilised by amine coupling on CM5; assay type: binding; conditions: PBS running buffer
Sequence (P39310 52-212): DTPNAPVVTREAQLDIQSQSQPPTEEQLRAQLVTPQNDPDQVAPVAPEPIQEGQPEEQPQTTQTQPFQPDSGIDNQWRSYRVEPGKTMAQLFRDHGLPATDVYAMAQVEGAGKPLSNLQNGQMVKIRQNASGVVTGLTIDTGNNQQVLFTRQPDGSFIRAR
Readings of Kd for the listed molecules
A number alone suffices; assume nM.

# count of solved cases: 5
| molecule | recorded.result |
| --- | --- |
| OC[C@H]1O[C@H](O[C@@H]2C(O)O[C@H](CO)[C@@H](O)[C@@H]2O)[C@@H](O)[C@@H](O)[C@@H]1O (stereo partly drawn) | 43.3 |
| OC[C@H]1O[C@H](O[C@H]2[C@H](O)[C@H](O)C(O)O[C@@H]2CO)[C@@H](O)[C@@H](O)[C@@H]1O (stereo partly drawn) | 31.2 |
| CC(=O)N[C@H]1[C@H](O[C@H]2[C@H](O)[C@@H](NC(C)=O)C(O)O[C@@H]2CO)O[C@H](CO)[C@@H](O[C@@H]2O[C@H](CO)[C@@H](O[C@@H]3O[C@H](CO)[C@@H](O)[C@H](O)[C@H]3NC(C)=O)[C@H](O)[C@H]2NC(C)=O)[C@@H]1O (stereo partly drawn) | 463 |
| CC(=O)N[C@H]1[C@H](O[C@H]2[C@H](O)[C@@H](NC(C)=O)C(O)O[C@@H]2CO)O[C@H](CO)[C@@H](O[C@@H]2O[C@H](CO)[C@@H](O)[C@H](O)[C@H]2NC(C)=O)[C@@H]1O (stereo partly drawn) | 3300 |
| CC(=O)N[C@H]1[C@H](O[C@H]2[C@H](O)[C@@H](NC(C)=O)[C@H](O[C@H]3[C@H](O)[C@@H](NC(C)=O)C(O)O[C@@H]3CO)O[C@@H]2CO)O[C@H](CO)[C@@H](O[C@@H]2O[C@H](CO)[C@@H](O[C@@H]3O[C@H](CO)[C@@H](O[C@@H]4O[C@H](CO)[C@@H](O)[C@H](O)[C@H]4NC(C)=O)[C@H](O)[C@H]3NC(C)=O)[C@H](O)[C@H]2NC(C)=O)[C@@H]1O (stereo partly drawn) | 24.8 |

API: the following record is the query input.
// fetch Kd given entry OC[C@H]1O[C@H](O[C@H]2[C@H](O)[C@@H](CO)OC(O)[C@H]2O)[C@@H](O)[C@@H](O)[C@@H]1O (stereo partly drawn)
345
